tested_system: Tyrosine-protein phosphatase non-receptor type 22 (Homo sapiens, UniProt Q9Y2R2)
Sequence (Q9Y2R2 whole entry): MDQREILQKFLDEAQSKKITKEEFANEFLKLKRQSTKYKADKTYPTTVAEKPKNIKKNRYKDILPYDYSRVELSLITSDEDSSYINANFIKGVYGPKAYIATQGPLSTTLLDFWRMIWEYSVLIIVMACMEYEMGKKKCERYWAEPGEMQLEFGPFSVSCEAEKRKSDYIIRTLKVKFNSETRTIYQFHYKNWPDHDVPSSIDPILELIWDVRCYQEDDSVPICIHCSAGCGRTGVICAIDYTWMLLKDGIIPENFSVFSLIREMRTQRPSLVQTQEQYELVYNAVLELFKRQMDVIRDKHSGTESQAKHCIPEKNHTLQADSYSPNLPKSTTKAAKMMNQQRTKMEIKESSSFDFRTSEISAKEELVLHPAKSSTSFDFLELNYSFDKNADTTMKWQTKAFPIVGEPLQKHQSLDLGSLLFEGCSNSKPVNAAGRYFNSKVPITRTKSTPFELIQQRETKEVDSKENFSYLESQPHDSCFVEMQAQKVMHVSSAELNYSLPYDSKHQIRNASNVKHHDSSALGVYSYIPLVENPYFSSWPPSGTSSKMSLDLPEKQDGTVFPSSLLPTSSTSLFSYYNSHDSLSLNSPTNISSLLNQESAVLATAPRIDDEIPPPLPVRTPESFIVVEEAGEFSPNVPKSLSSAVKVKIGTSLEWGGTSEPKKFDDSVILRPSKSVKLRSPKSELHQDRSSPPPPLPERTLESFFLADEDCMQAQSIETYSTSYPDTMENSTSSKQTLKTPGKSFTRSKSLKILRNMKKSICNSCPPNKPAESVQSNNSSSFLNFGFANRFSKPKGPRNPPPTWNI
assay_comment: Inhibition of lymphoid specific tyrosine phosphatase
Task for the reader: assign each of the following compounds its reported IC50.

Query: Value wanted: IC50 (Tyrosine-protein phosphatase non-receptor type 22 (Homo sapiens, UniProt Q9Y2R2)) of entry `O=C(O)Cn1c(O)cn(N=Cc2ccc(-c3ccc(O)c(C(=O)O)c3)s2)c1=O`
Result: > 44 µM

Query: # returns recorded IC50 (system: Tyrosine-protein phosphatase non-receptor type 22 (Homo sapiens, UniProt Q9Y2R2)) for `COC(=O)c1cc(-c2ccc(C=Nn3cc(O)[nH]c3=O)s2)ccc1O`
Result: > 44 µM

Query: For Tyrosine-protein phosphatase non-receptor type 22 (Homo sapiens, UniProt Q9Y2R2), provide IC50 of `COC(=O)c1cc(-c2ccc(C=Nn3cc(O)[nH]c3=O)o2)ccc1O` please.
Result: > 44 µM
